- methodDescription: soluble fraction after stress (log2 fold change); higher = more stays soluble; pooled small domains, quantitative proteomics
- protocolConditions: stress: 50 degC
measurementType: soluble fraction (log2)
Give the value as a plain number.

### Prompt Give its soluble fraction (log2) value. Item: HMSTFAQNLRALMEKRGVSQNELARSAGLTQSAINKILTGKTKQPGIDTTEAIARVLNVSVAQLIYT
### Response -0.303

### Prompt Would you kindly repeat that for HMEPDTVVVPNFVGKVYASEIEGNEAYSDFTFVIKEGNDPEQDIGVVLKQTPNEGLEVKKGKEITLTINQ ?
### Response -0.0593

### Prompt Now consider HMDAVKKKVQSTNTLLDVLKQMLPQTSSNTLRKMLTNQRITVDGETIHRAKHTVEKDQTVEIHPKP and answer again.
### Response 0.256

### Prompt Next: HMSRESNISTGRQLLEAQLPTWGYKKVEDIPSKQMKTALDAFNYKDVESLLQGLGEGSVALTTALRRLMP
### Response 0.313

### Prompt Also check HMSPFAHHLHELRMRHGIRQNELAELIGYDQTYISALEVGLKGPPTPEFVDKLVEGLALSRTEEAALRSAA
### Response -0.482

### Prompt Queued: HMDIGTYTVTASALNIRQYPTASSAKTGSYPNGSIVTIYEYLTDGSWGRTDDGWISMNYVSRRY
### Response -2.01

### Prompt Would you kindly repeat that for HMRSVLSDEIYLLIRKMIFNYEILPGAKVNIDALAKKLDVSQTPVREALSRLESDGLIVKEPLKGFRATD ?
### Response -0.875

### Prompt Try this sequence next: HMVTKQKKLVLTIIERSHGHLSAEEIFFRAREEMPNIALGTVYRNLNSLTEEGIVRRITLPGTSDRFDT
### Response -2.79

### Prompt Next sequence: HMVAVSQEEATKMALERVSGASAQDIRIQLEFDDGIQKYEGDIIYNGREYEFEIDANTGTFLEWSEERA
### Response -0.489

### Prompt Param item: HMKPSKTDEAEYWLMERLEEGPQPAGDLIRIGEEFGYTPKILRDAGERFNMERYKDGLDHWMWKLPN
### Response -0.0945

### Prompt Try the sequence HMRWSDQKEIVTLSLDHVLVEKGRKTKEYSWREFRTFTAFEIKKSSKDQINLGFKSKGNTVIIGNF
### Response -0.919

* * *

- methodDescription: soluble fraction after stress (log2 fold change); higher = more stays soluble; pooled small domains, quantitative proteomics
- protocolConditions: stress: 50 degC
Everything with soluble fraction (log2) lower than -0.03 is FALSE; everything else, including exactly -0.03, is TRUE.

### Prompt soluble fraction (log2) >= -0.03 for HMRDADRYAFMQENVEDFAKDMRRKHMTYDVLYEEYIRRTDNPYGYTQFKAIVQEYEKNHDYK ?
### Response FALSE

### Prompt Continue with HMDLPRQSQYQALVVSYARRAGIDEAEEDLLAAFEVWRMRHNHDLAGGRTARDFILAYLPQYQRHKE
### Response FALSE

### Prompt For HMQGEDEILKIHEALEELAQIDARLVRVVEMRYFVGLSNQEIADSLGVTTRTVERDWEKARTFLFNALHP then?
### Response FALSE

### Prompt Same read-out for HMQSSDQTDNIYENAVSIVLETGKASASHLQRVLGIDYNLAAHLIDKMEDGGLLSPPNYLGHRDVYGYT ?
### Response TRUE

### Prompt Queued: HMESTLNYSQFLSLVNEDRVAEVVIQGKELYVTDVNRSRFKVYAPPDPELIGLLRQKRVIISAKP
### Response TRUE

### Prompt Same thing, different sequence: HMKKKLPRYLQEQKYGNGMVFYRYNPTARYIDEGIVTRTNLGSDLSIAKKKANEFNKLIDAFLQQQSE
### Response FALSE

### Prompt Field entry: HMTRNEFMTALRKRLSHLPAEEQDAALKYYEEYFDEAESEEEAARQLGSPDAIADRILADYGAG
### Response TRUE

### Prompt Another sequence: HMLNAPFGFRIEDDTLIPIPEEAKVVRQIFRYYLQGMGFGKIAQELNGQDVPGKPWGKERIKYILSNEKYI
### Response FALSE

### Prompt Entry to check: HMELNGVSETAKSVYSIILNNSSTVDDIVIKTKLPAAKVMQALTELELNDAVERKSGGVYALP
### Response TRUE

### Prompt Subsequent entry: HMQMSPREKMIYSFIESHPGTKSGEIAEKLNVPLPTVKRILSEMVSGNFIAKHGSGIGTNYSTEK
### Response TRUE

### Prompt And for HMQPIEIQDRITKAFERSAALEAKNINVEVDGHTVKLTGTVHSLTEKEEARKAAFFAPGVTKVENHLIVDY ?
### Response TRUE

### Prompt Same question for HMGASTQLVEIKNAYENGEWQNVIDLAGKLHEKYNGSEEDKEAQEMAKNSQSKLDEAAAAKAAEEA please.
### Response FALSE

### Prompt Also need HMGTRTILGIDPGSRKTGFGIIRLDGSRTHYVSSGVIRIPDTALPERLKIIFASLNEIIQQFQPQEV , thanks.
### Response TRUE

### Prompt Another sequence: HMDSVSAVRTTHLNSYVLLLEKDGMAAATISRYIASMKGFFEYLFREHMIEEDPAFTLKPPKV
### Response FALSE

### Prompt Likewise for HMFAATGVVNAPSGLVLRETASKGGNPLATVPDKAQVEIVEEDGEWYKVKVNEQTGYLFAEFVNKTE ?
### Response TRUE

### Prompt For HMTKGVQMFAEQLKRTRQSRHYSQAEIASKLGVTQQAIAKWETGVSTPSPTSISKLSDILGISTDVLLKGA then?
### Response TRUE
